Hey, just so you know, these numbers are from ChEMBL document CHEMBL1201862.

Tested on: SR
Run description: NCI tumour cell line growth inhibition, 48 h
Activity calls are given as the source filed them. Cut-off read from the data, not from the text of the source: active = GI50 up to about 1.1 µM and inactive = higher.
Assign GI50 to each entry below.

Answer with GI50 of "Cc1nnc2sc(-c3ccc([N+](=O)[O-])o3)nn12" measured for SR.
8.61 µM (inactive)

Would you please give the reported GI50 of "CC1(C)OP(=O)(O)CC1=O" with SR?
> 100 µM (inactive)

Tell me its GI50 on SR: "C[C@]12CCC(=O)C=C1CC[C@@H]1[C@@H]2CC[C@]2(C)C(=O)/C(=C/c3ccc([N+](=O)[O-])cc3)C[C@@H]12"
2.9 µM (inactive)

----------
Test system: DU-145
Run description: NCI tumour cell line growth inhibition, 48 h
Calls of active or inactive are those of the source. Cut-off read from the data, not from the text of the source: active = GI50 up to about 1.1 µM and inactive = higher.
Response enum: active, inactive

Please let me know the test result on file for "CSC1=N/C(=C\c2cccs2)C(=O)N1CN1CCOCC1" .
inactive

Lab log entry: "CCOC(=O)c1sc(N/N=C2\NC(=O)/C(=C/c3ccc([N+](=O)[O-])cc3)S2)nc1C" — outcome as called in the assay?
inactive

Which outcome was assigned to C[C@H]1[C@H]2[C@H](C[C@@]3(C)C4=CC[C@H]5C(C)(C)[C@@H](OC6OCC(O)C(O)C6O)CC[C@@]56C[C@@]46CC[C@]23C)O[C@@]2(O)[C@@H]1OC(C)(C)[C@H]2O (some centres undefined) in this test?
active

// return assay outcome for "Cn1c2ccccc2n2c3ncccc3/c(=N/CCCC(=O)O)c(C#N)c12"
inactive

----------
Tested on: RPMI-8226
Run description: NCI tumour cell line growth inhibition, 48 h
Active and inactive are the calls of the source. No stated cut-off is given here; in the data, active = GI50 up to about 1.1 µM and inactive = higher. Residues, ends and D or L forms follow the SMILES beside them.
Return exactly one item of yes = active, no = inactive

Could you please tell me the result logged for C=C(Br)C(Br)(CCl)CCC(Cl)C(C)C.C=C(Cl)C(Br)(CCl)CCC(Cl)C(C)C (configuration not stated) in this assay?
yes

Write down the call the test reported for this compound. Item: "N#Cc1nc(Nc2ccc(Cl)cc2)sc1N"
no

State the result this test recorded for N#CCC(=O)N/N=C(/C(=O)Nc1ccccc1)C1C(=O)N(c2ccccc2)N=C1N (configuration not stated) .
no

I would be grateful if you could indicate the recorded call for COC(=O)C1CC(=O)CCC1c1ccccc1 (configuration not stated) .
no

Please state the recorded outcome for this compound: "Cc1cc(N(CCC#N)S(=O)(=O)c2ccccc2)ccc1/C=N\c1cccc(C(=O)O)c1"
no

Outcome logged for OC(CC(O)(C(F)(F)F)C(F)(F)F)C(O)c1ccco1 (configuration not stated) in this assay:
no

Each compound tested received a call. Report the one for "O=C(O)CSc1nnc(-c2ccccc2O)[nH]1" .
no

Hey, what did the test say about CC(=O)NC(CO)C(=O)NC(Cc1ccc(O)cc1)C(=O)NCC(N)=O (stereo not drawn) (Ac-Ser-Tyr-Gly-NH2; configuration not given here) ?
no

Which result was noted for this compound in the test: CC(C)C12CCC3(CCC4C(C)(C(=O)O)CCCC4(C)C3C1)C(CN)C2 (configuration not stated)
no

Write down the call the test reported for this compound. Item: "CCOC(=O)C1=C(C)Nc2ccccc2S1"
no

I'd appreciate the recorded outcome for "O=C(NNC(=S)Nc1ccccc1)c1csc(NC(=S)NC2CCCCC2)n1" from this test.
no

Fill in: this test's call for CC1(C)CCC(=O)NC1CC(=O)CC1NC(=O)CCC1(C)C (configuration not stated) is ___
no

Hi team, can someone confirm the assay call for "CCn1c2ccc(C(=O)CCCN3CCCCC3)cc2c2cc(C(=O)CCCN3CCCCC3)ccc21" ?
no

Assay outcome for "N#Cc1c(C#N)c(-c2ccco2)n(-c2ccccc2)c1N" : what was it?
no

Tell me the assay call for "NC(=O)c1nc(-c2ccc(Cl)c(Cl)c2)nc2ccccc12" please.
no

# lookup: test call for "O=C1NC(=O)C(C(=O)C(=O)Nc2cccc(C(F)(F)F)c2)C(=O)N1"
no

What was the test verdict on COc1cc(/C=C2\C(=O)N(c3ccc(NC(C)=O)cc3)C(c3ccccc3)S2(=O)=O)cc(OC)c1OC (configuration not stated) ?
no

For "CC1(C)CC(=O)c2c(nc3c(ccc4ccccc43)c2-c2ccc(NC(=O)CCCCC(=O)Nc3ccc(-c4c5c(nc6c4ccc4ccccc46)CC(C)(C)CC5=O)cc3)cc2)C1" , which call appears in the assay record?
no

Just curious, what result did CC(C)N(C(=O)C12C3C4C1(I)C1C2C3(I)C41C(=O)N(C(C)C)C(C)C)C(C)C (configuration not stated) get here?
no

Dear all, I need the recorded test outcome for "CSc1nc(C#N)c(/N=C\N(C)C)n1C" , thank you.
no

Dear colleague, could you share the recorded outcome for COc1ccc(C2COc3cc(O)c(O)cc3C2)cc1 (configuration not stated) when you have a moment?
no

What is the recorded call for this compound in the test? "Cc1cc(-c2nc3ccc(F)cc3s2)ccc1N"
no

Test call, this compound: "CSc1c(C#N)c(O)n(-c2ccc(Cl)cc2)c(=O)c1C#N"
no

Identify the outcome logged in this assay for the compound shown: "CN(CCN(C)C(=O)CCn1cc(F)c(=O)[nH]c1=O)C(=O)CCn1cc(F)c(=O)[nH]c1=O"
no

Please share the test call associated with "O=c1c2c3c(sc2nc(CN2CCNCC2)n1-c1ccccc1)CCCC3" .
no

Called result for CC(=O)OC1C(C)OC(OC2C[C@](O)(C(C)=O)Cc3c(O)c4c(c(O)c32)C(=O)c2ccccc2C4=O)C(F)C1OC(C)=O (some centres not stated)
yes

Hi, do you know how "COc1ccc(-c2cn3c(n2)sc2cc(C)ccc23)cc1" came out in this test?
no

# fetch the recorded call for O=c1[nH]cc(COCC(O)CO)c(=O)[nH]1 (configuration not stated) here
no

Which outcome did this test record for the compound CCCCCCCCCCCCCCCC(=O)NC1CCc2cc(O)c(O)c(O)c2-c2ccc(SC)c(=O)cc21 (configuration not stated) ?
no

Can you look up the reported call for "COc1ccc2c(Cl)cc(NC(=S)Nc3ccccc3)nc2c1" for me?
no

GET /call?item= "CCOC(=O)c1c(NC(=O)c2ccccc2)sc2c1CCC2" returns the recorded outcome of this test.
no

Status in this test for "O=C1NC(=O)C(=Cc2c3ccccc3cc3ccccc23)C(=O)N1" ?
no

Check the results log: what was the call for "C/C(=C\COc1ccc2ccc(=O)oc2c1)C1=CC(=O)C(C)(C)O1" ?
no

Each compound tested received a call. Report the one for "Cc1ccc(S(=O)(=O)N2CCN(S(=O)(=O)c3ccc(C)cc3)Cc3ccccc3C2)cc1" .
no

So what was the verdict on "COC(=O)Cn1cnc2c(Cl)nc(Nc3ccccc3)nc21" in this test?
no

Test call, this compound: "NC1CCCCC1.O=P(O)(O)C(CSc1ccccc1)P(=O)(O)O"
no

Which outcome did this test record for the compound "O=C(N/N=C(COc1ccccc1)\N=C\c1cccnc1)c1ccncc1" ?
no

Could you kindly confirm the outcome this assay logged for COc1ccc(C(=O)C(c2ccc(OC)cc2)C2(O)C(=O)Nc3c(C)cc(Cl)cc32)cc1 (configuration not stated) ?
no

How did this test come out for "C=CCNC(=S)N/N=C1\C(=O)Nc2ccc([N+](=O)[O-])cc21" ?
no

Hello, I am checking results. What call was entered for C=C1C(=O)O[C@@H]2C[C@@H](C)[C@@H]3[C@@H](OC4OC(COC(C)=O)C(O)C(O)C4O)CC(=O)[C@@]3(C)C[C@H]12 (some centres not stated) ?
no

Name the outcome recorded for "Cn1cnc([N+](=O)[O-])c1Sc1nnnn1C" in the assay.
no

Short answer needed: outcome of this test for COC1=NC(NC2OCC(O)C(O)C2O)=C(NC(C)=O)CN1C (configuration not stated) ?
no
